# systemTested: Casein kinase II alpha/beta (Homo sapiens, UniProt P68400)
# Sequence (P68400 whole entry, looked up): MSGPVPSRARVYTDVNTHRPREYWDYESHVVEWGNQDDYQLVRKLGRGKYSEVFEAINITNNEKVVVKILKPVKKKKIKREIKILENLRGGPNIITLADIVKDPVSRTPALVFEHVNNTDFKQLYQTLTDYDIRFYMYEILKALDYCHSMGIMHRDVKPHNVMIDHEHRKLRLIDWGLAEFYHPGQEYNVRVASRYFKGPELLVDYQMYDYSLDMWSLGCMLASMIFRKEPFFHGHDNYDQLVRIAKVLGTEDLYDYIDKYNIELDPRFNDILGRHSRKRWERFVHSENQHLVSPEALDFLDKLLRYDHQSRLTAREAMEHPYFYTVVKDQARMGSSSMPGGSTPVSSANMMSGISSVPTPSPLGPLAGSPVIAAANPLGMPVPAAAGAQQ
# assayMethodText: Inhibition of human recombinant CK2alpha/CK2beta using RRRDDDSDDD peptide as substrate by radiometric assay
pIC50: −log10 of the molar value.
pIC50 listing for selected molecules.
reportedEndpoint: pIC50

{"structureSmilesString": "NC(=O)c1cccc(-c2nc3cc(C(=O)O)ccc3c3cnccc23)c1", "recordedNumber": 8.46}
{"structureSmilesString": "O=C(O)c1ccc2c(c1)nc(Cc1cccc(Cl)c1)c1ccncc12", "recordedNumber": 8.68}
{"structureSmilesString": "O=C(O)c1ccc2c(c1)nc(-c1ccccc1)c1ccncc12", "recordedNumber": 8.96}
{"structureSmilesString": "O=C(O)c1ccc2c(c1)nc(-c1ccccc1OC(F)(F)F)c1ccncc12", "recordedNumber": 7.41}
{"structureSmilesString": "CN(c1cccc(Cl)c1)c1nc2cc(C(=O)O)ccc2c2cnccc12", "recordedNumber": 8.05}
{"structureSmilesString": "Cc1ccccc1-c1nc2cc(C(=O)O)ccc2c2cnccc12", "recordedNumber": 7.70}
{"structureSmilesString": "O=C(O)c1ccc2c(c1)nc(-c1cccc(Cl)c1)c1ccncc12", "recordedNumber": 8.54}
{"structureSmilesString": "O=C(O)c1ccc2c(c1)nc(-c1ccc(F)cc1)c1ccncc12", "recordedNumber": 8.92}
{"structureSmilesString": "CS(=O)(=O)c1cccc(-c2nc3cc(C(=O)O)ccc3c3cnccc23)c1", "recordedNumber": 7.89}
{"structureSmilesString": "O=C(O)c1ccc2c(c1)nc(-c1ccccc1F)c1ccncc12", "recordedNumber": 7.82}
{"structureSmilesString": "O=C(O)c1ccc2c(c1)nc(-c1ccsc1)c1ccncc12", "recordedNumber": 9.30}
{"structureSmilesString": "O=C(O)c1ccc2c(c1)nc(-c1ccc(Cl)cc1)c1ccncc12", "recordedNumber": 9.30}
{"structureSmilesString": "O=C(O)c1ccc2c(c1)nc(-c1cccc(O)c1)c1ncncc12", "recordedNumber": 8.46}
{"structureSmilesString": "O=C(O)c1ccc2c(c1)nc(-c1cccc(O)c1)c1ccncc12", "recordedNumber": 9.00}
{"structureSmilesString": "NS(=O)(=O)c1cccc(-c2nc3cc(C(=O)O)ccc3c3cnccc23)c1", "recordedNumber": 7.96}
{"structureSmilesString": "NC(=O)c1cccc(-c2nc3cc(C(=O)O)ccc3c3cncnc23)c1", "recordedNumber": 7.77}
{"structureSmilesString": "O=C(O)c1ccc2c(c1)nc(-c1cccc(OC(F)(F)F)c1)c1ccncc12", "recordedNumber": 8.24}
{"structureSmilesString": "O=C(O)c1ccc2c(c1)nc(-c1ccccc1)c1nc(NC3CC3)ncc12", "recordedNumber": 9.22}
{"structureSmilesString": "NC(=O)c1ccc2c(c1)nc(-c1ccc(Cl)cc1)c1ccncc12", "recordedNumber": 7.52}

---

# systemTested: Casein kinase II alpha/beta (Homo sapiens, UniProt P68400)
# assayMethodText: Inhibition of human recombinant CK2alpha/CK2beta using RRRDDDSDDD peptide as substrate by radiometric assay
reportedEndpoint: log10 IC50 (log10 of the value in nM)

{"structureSmilesString": "O=C(O)c1ccc2c(c1)nc(-c1ccc(Cl)s1)c1ccncc12", "recordedNumber": -0.40}
{"structureSmilesString": "O=C(O)c1ccc2nc(-c3ccc(Cl)cc3)c3ccncc3c2c1", "recordedNumber": 2.21}
{"structureSmilesString": "O=C(O)c1ccc2c(c1)nc(-c1cccc(F)c1)c1ccncc12", "recordedNumber": 0.11}
{"structureSmilesString": "Clc1ccc(-c2nc3cc(-c4nnn[nH]4)ccc3c3cnccc23)cc1", "recordedNumber": 1.30}
{"structureSmilesString": "CONC(=O)c1ccc2c(c1)nc(-c1ccc(Cl)cc1)c1ccncc12", "recordedNumber": 2.65}
{"structureSmilesString": "O=C(O)c1ccc2c(c1)nc(-c1ccncc1)c1ccncc12", "recordedNumber": 1.54}
{"structureSmilesString": "Cc1cscc1-c1nc2cc(C(=O)O)ccc2c2cnccc12", "recordedNumber": 0.62}
{"structureSmilesString": "COc1cccc(-c2nc3cc(C(=O)O)ccc3c3cnccc23)c1", "recordedNumber": 1.53}
{"structureSmilesString": "CCNc1ncc2c(n1)c(-c1ccc(Cl)cc1)nc1cc(C(=O)O)ccc12", "recordedNumber": -0.30}

---

# systemTested: Casein kinase II alpha/beta (Homo sapiens)
# assayMethodText: Inhibition of human recombinant CK2alpha/CK2beta using RRRDDDSDDD peptide as substrate by radiometric assay

{"structureSmilesString": "O=C(O)c1ccc2c(c1)nc(Sc1cccc(Cl)c1)c1ccncc12", "IC50 (nM)": 1}
{"structureSmilesString": "O=C(O)c1ccc2c(c1)nc(Oc1cccc(Cl)c1)c1ccncc12", "IC50 (nM)": 3.7}
{"structureSmilesString": "COC(=O)c1ccc2c(c1)nc(-c1ccc(Cl)cc1)c1ccncc12", "IC50 (nM)": 395}
{"structureSmilesString": "Nc1cccc(-c2nc3cc(C(=O)O)ccc3c3cnccc23)c1", "IC50 (nM)": 2.7}
{"structureSmilesString": "O=C(O)c1cccc2c1nc(-c1ccc(Cl)cc1)c1ccncc12", "IC50 (nM)": 2030}
{"structureSmilesString": "O=C(O)c1ccc2c(c1)nc(-c1ccc(Cl)cc1)c1ncncc12", "IC50 (nM)": 12}

Source listed as ChEMBL document CHEMBL1932965.
